MIC, Gram negative K. pneumoniae, K. pneumoniae (ATCC 13383), per-entry values.
// units = µg/mL; emit number, no label

Would you please look over these solved cases?
CHEMICAL SMILES	UOM	MIC, Gram negative K. pneumoniae
CCCCCCCCCCCCCCCC(=O)N[C@@H](CCCCN)CN(CC(N)=O)C(=O)CCCN	µg/mL	35
CCCCCCCC/C=C\CCCCCCCC(=O)N[C@@H](C)CN(CC(=O)N[C@@H](C)CN(CC(=O)N[C@@H](CC(C)C)CN(CC(=O)N[C@@H](CC(C)C)CN(CC(=O)N[C@@H](CC(C)C)CN(CC(N)=O)C(=O)CCCN)C(=O)CCCN)C(=O)CCCN)C(C)=O)C(C)=O	µg/mL	3

Now for another entry.
Query string: Query: MIC, Gram negative K. pneumoniae; subject: CCCCCCCC/C=C\CCCCCCCC(=O)N[C@@H](CCCCN)C(=O)N[C@@H](CCCCN)CN(CC(N)=O)C(=O)CCCN
Result string: 40

* * *

# Test system: multi-drug resistant P. aeruginosa ATCC 27853
# DETAILS: ATCC 27853
Recorded MIC, P. aeruginosa by entry
Answer with a number only, understood to be in µg/mL.

COMPOUND	MIC, P. aeruginosa (µg/mL)
NCCCC[C@H]1CN(C(=O)CCc2ccccc2)CC(=O)N[C@@H](CCCCN)CN(C(=O)CCc2ccccc2)CC(=O)N[C@@H](CCCCN)CN(C(=O)CCc2ccccc2)CC(=O)N[C@@H](CCCCN)CN(C(=O)CCc2ccccc2)CC(=O)N[C@@H](CCCCN)CN(C(=O)CCc2ccccc2)CC(=O)N[C@@H](CCCCN)CN(C(=O)CCc2ccccc2)CC(=O)N[C@@H](Cc2ccccc2)CN(CC(N)=O)C(=O)CCC(=O)N1 [HW-B-5]	18

Next:
Query string: Tell me the measured MIC, P. aeruginosa of CCCCCCCC/C=C\CCCCCCCC(=O)N[C@@H](CCCCN)CN(CC(N)=O)C(=O)CCCN [γAA7] , please.
Result string: 2.5

* * *

# Tested on: C. albicans (ATCC 10231)
# DETAILS: ATCC 10231
Reported MIC, Fungi, C. albicans values are given for each entry in this list.
Express the result in µg/mL but write the number alone.

Reference set (5 entries):
CHEMICAL SMILES	MEASURE	UOM	REPORTED
CCCCCCCCCCCCCCCC(=O)N[C@@H](CCCCN)CN(CC(N)=O)C(=O)CCCN	MIC, Fungi, C. albicans	µg/mL	2
CC(C)C[C@@H](CN(CC(=O)N[C@@H](CCCCN)CN(CC(N)=O)C(=O)CCc1ccccc1)C(=O)CCc1ccccc1)NC(=O)CN(C[C@H](CCCCN)NC(=O)CN(C[C@H](CCCCN)NC(=O)CN(C[C@H](CC(C)C)NC(=O)CN(C[C@H](CCCCN)NC(=O)CN(C[C@@H](N)CCCCN)C(=O)CCc1ccccc1)C(=O)CCc1ccccc1)C(=O)CCc1ccccc1)C(=O)CCc1ccccc1)C(=O)CCc1ccccc1	MIC, Fungi, C. albicans	µg/mL	8
CCCCCCCCCCCCCCCC(=O)N[C@@H](C)CN(CC(=O)N[C@@H](C)CN(CC(=O)N[C@@H](CCCCN)CN(CC(=O)N[C@@H](CCCCN)CN(CC(=O)N[C@@H](CCCCN)CN(CC(N)=O)C(=O)CCCN)C(=O)CCCN)C(=O)CCCN)C(C)=O)C(C)=O	MIC, Fungi, C. albicans	µg/mL	7.5
CCCCCCCC/C=C\CCCCCCCC(=O)N[C@@H](C)CN(CC(=O)N[C@@H](C)CN(CC(=O)N[C@@H](CC(C)C)CN(CC(=O)N[C@@H](CC(C)C)CN(CC(=O)N[C@@H](CC(C)C)CN(CC(N)=O)C(=O)CCCN)C(=O)CCCN)C(=O)CCCN)C(C)=O)C(C)=O	MIC, Fungi, C. albicans	µg/mL	3
CCCCCCCC/C=C\CCCCCCCC(=O)N[C@@H](CCCCN)CN(CC(=O)N[C@@H](CCCCN)CN(CC(N)=O)C(=O)CCCN)C(=O)CCCN	MIC, Fungi, C. albicans	µg/mL	2

Query string: Which MIC, Fungi, C. albicans is reported for this compound? CCCCCCCC/C=C\CCCCCCCC(=O)N[C@@H](CCCCN)C(=O)N[C@@H](CCCCN)CN(CC(N)=O)C(=O)CCCN
Result string: 5

* * *

# Lookup of reported MIC, Fungus C. albicans keyed by entry
# Tested on: C. albicans (ATCC 10231)
# DETAILS: ATCC 10231
Give a bare numeral; the unit µg/mL is implied.

CHEMICAL SMILES	MIC, Fungus C. albicans [µg/mL]
CC(C)CCC(=O)N1CC(=O)N[C@@H](Cc2ccccc2)CN(C(=O)CCC(C)C)CC(=O)N[C@@H](CCCCN)CN(C(=O)CCc2ccccc2)CC(=O)N[C@@H](CCCCN)CN(C(=O)CCc2ccccc2)CC(=O)N[C@@H](CCCCN)CN(C(=O)CCc2ccccc2)CC(=O)N[C@@H](CCCCN)CN(C(=O)CCc2ccccc2)CC(=O)N[C@@H](Cc2ccccc2)CN(CC(N)=O)C(=O)CCC(=O)N[C@@H](Cc2ccccc2)C1	2

Query string: # MIC, Fungus C. albicans lookup, item CC(C)CCC(=O)N1CC(=O)N[C@@H](Cc2ccccc2)CN(C(=O)CCC(C)C)CC(=O)N[C@@H](Cc2ccccc2)CN(C(=O)CCC(C)C)CC(=O)N[C@@H](CCCCN)CN(C(=O)CCc2ccccc2)CC(=O)N[C@@H](CCCCN)CN(C(=O)CCc2ccccc2)CC(=O)N[C@@H](CCCCN)CN(C(=O)CCc2ccccc2)CC(=O)N[C@@H](Cc2ccccc2)CN(CC(N)=O)C(=O)CCC(=O)N[C@@H](Cc2ccccc2)C1
Result string: 4

* * *

# System: human red blood cells (hRBC's)
# ASSAY NOTES: Hemolysis assay
# Type: cell-based
MEASURE: Hemolysis H50

Before answering, review these 2 worked examples.
CHEMICAL SMILES	Hemolysis H50
NCCCC[C@H]1CN(C(=O)CCc2ccccc2)CC(=O)N[C@@H](CCCCN)CN(C(=O)CCc2ccccc2)CC(=O)N[C@@H](CCCCN)CN(C(=O)CCc2ccccc2)CC(=O)N[C@@H](CCCCN)CN(C(=O)CCc2ccccc2)CC(=O)N[C@@H](CCCCN)CN(C(=O)CCc2ccccc2)CC(=O)N[C@@H](CCCCN)CN(C(=O)CCc2ccccc2)CC(=O)N[C@@H](Cc2ccccc2)CN(CC(N)=O)C(=O)CCC(=O)N1	> 500 µg/mL
CC(C)CCC(=O)N1CC(=O)N[C@@H](Cc2ccccc2)CN(C(=O)CCC(C)C)CC(=O)N[C@@H](CCCCN)CN(C(=O)CCc2ccccc2)CC(=O)N[C@@H](CCCCN)CN(C(=O)CCc2ccccc2)CC(=O)N[C@@H](CCCCN)CN(C(=O)CCc2ccccc2)CC(=O)N[C@@H](CCCCN)CN(C(=O)CCc2ccccc2)CC(=O)N[C@@H](Cc2ccccc2)CN(CC(N)=O)C(=O)CCC(=O)N[C@@H](Cc2ccccc2)C1	100 µg/mL

Here is another compound to look at.
Query string: I would be grateful if you could share the reported Hemolysis H50 for NCCCC[C@H]1CN(C(=O)CCc2ccccc2)CC(=O)N[C@@H](CCCCN)CN(C(=O)CCc2ccccc2)CC(=O)N[C@@H](CCCCN)CN(C(=O)CCc2ccccc2)CC(=O)N[C@@H](CCCCN)CN(C(=O)CCc2ccccc2)CC(=O)N[C@@H](CCCCN)CN(C(=O)CCc2ccccc2)CC(=O)N[C@@H](Cc2ccccc2)CN(CC(N)=O)C(=O)CCC(=O)N1 .
Result string: > 500 µg/mL

* * *

# Test system: vancomycin-resistant E. faecalis (ATCC 700802)
# DETAILS: Table 1
MEASURE: MIC, E. faecalis (vancomycin-resistant)

Field: example entries. Status: answers known.
MOLECULE	MEASUREMENT TARGET	MEASURE	REPORTED
CC(C)C[C@@H](CN(CC(=O)N[C@@H](CCCCN)CN(CC(=O)N[C@@H](CCCCN)CN(CC(=O)N[C@@H](CCCCN)CN(CC(N)=O)C(=O)CCc1ccccc1)C(=O)CCc1ccccc1)C(=O)CCc1ccccc1)C(=O)CCc1ccccc1)NC(=O)CN(C[C@H](CCCCN)NC(=O)CN(C[C@H](CCCCN)NC(=O)CN(C[C@@H](N)CCCCN)C(=O)CCc1ccccc1)C(=O)CCc1ccccc1)C(=O)CCc1ccccc1 [γ4]	vancomycin-resistant E. faecalis (ATCC 700802)	MIC, E. faecalis (vancomycin-resistant)	12.5 to 25 µg/mL
NCCCC[C@H](N)CN(CC(=O)N[C@@H](CCCCN)CN(CC(=O)N[C@@H](CCCCN)CN(CC(=O)N[C@@H](CCCCN)CN(CC(=O)N[C@@H](CCCCN)CN(CC(=O)N[C@@H](CCCCN)CN(CC(=O)N[C@@H](CCCCN)CN(CC(N)=O)C(=O)CCc1ccccc1)C(=O)CCc1ccccc1)C(=O)CCc1ccccc1)C(=O)CCc1ccccc1)C(=O)CCc1ccccc1)C(=O)CCc1ccccc1)C(=O)CCc1ccccc1 [γ3]	vancomycin-resistant E. faecalis (ATCC 700802)	MIC, E. faecalis (vancomycin-resistant)	12.5 to 25 µg/mL
NCCCC[C@H](N)CN(CC(=O)N[C@@H](CCCCN)CN(CC(=O)N[C@@H](CCCCN)CN(CC(=O)N[C@@H](CCCCN)CN(CC(=O)N[C@@H](CCCCN)CN(CC(N)=O)C(=O)CCc1ccccc1)C(=O)CCc1ccccc1)C(=O)CCc1ccccc1)C(=O)CCc1ccccc1)C(=O)CCc1ccccc1 [γ2]	vancomycin-resistant E. faecalis (ATCC 700802)	MIC, E. faecalis (vancomycin-resistant)	>100 µg/mL
CC(C)C[C@@H](CN(CC(=O)N[C@@H](CCCCN)CN(CC(N)=O)C(=O)CCc1ccccc1)C(=O)CCc1ccccc1)NC(=O)CN(C[C@H](CCCCN)NC(=O)CN(C[C@H](CCCCN)NC(=O)CN(C[C@H](CC(C)C)NC(=O)CN(C[C@H](CCCCN)NC(=O)CN(C[C@@H](N)CCCCN)C(=O)CCc1ccccc1)C(=O)CCc1ccccc1)C(=O)CCc1ccccc1)C(=O)CCc1ccccc1)C(=O)CCc1ccccc1 [γ5]	vancomycin-resistant E. faecalis (ATCC 700802)	MIC, E. faecalis (vancomycin-resistant)	3.1 to 6.25 µg/mL

Query molecule follows.
Query string: Fill in: MIC, E. faecalis (vancomycin-resistant) of NCCCC[C@H](N)CN(CC(=O)N[C@@H](CCCCN)CN(CC(=O)N[C@@H](CCCCN)CN(CC(N)=O)C(=O)CCc1ccccc1)C(=O)CCc1ccccc1)C(=O)CCc1ccccc1 [γ1] is ___
Result string: >100 µg/mL
